Listing: OD450 nm of selected binders
# TEST_SYSTEM: T1, biotinylated hBLyS-ECD (human, UniProt Q9Y275 134-285, biotinylated with Biotin-X-X-NHS (molar ratio 7:1); sites not stated)
# T1 construct: also called biotinylated immunogen; biotinylated hBLvS-ECD
# T1 sequence (Q9Y275 134-285): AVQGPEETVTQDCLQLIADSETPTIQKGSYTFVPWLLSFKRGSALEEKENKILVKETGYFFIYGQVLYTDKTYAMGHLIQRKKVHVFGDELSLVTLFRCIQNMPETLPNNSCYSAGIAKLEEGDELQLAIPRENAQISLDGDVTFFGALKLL
# TEST_NAME: BAFF R-coated ELISA, biotinylated hBLyS-ECD bound in presence of antibody 0.0064 nM
Please reply with the bare figure in OD450 nm and do not write the unit itself.

A selection of reference data follows.
1) c8E7D9C7F5 (antibody, V domains shown, also called chimeric antibody c8E7D9C7F5) VH: QVQLQQSGVELARPGASVKLSCKASGYTFTSYGISWVKQRTGQALEWIGEIYPRSGNTYYNEKFKGKATLTADKSSSTAYMELRSLTSEDSAVYFCARSGPITTLVATDYGMDYWGQGTSVTVSS VL: DIVLTQSPASLAVSLGQRATISCRASKSVSTSSYSYMHWYQQKPGQPPKLLIKFASNLESGVPARFSGSGSGTDFTLNIHPVEEEDAATYYCQHSREFPYTFGGGTKLEIK | 2.01
2) h8E7D9C7F5-1 (antibody, V domains shown, Humanized antibody; also called humanized BLyS antibody h8E7D9C7F5 variant 1 (VH.1 / Vk.1)) VH: EVQLVQSGAEVKKPGASVKVSCKASGYTFTSYGISWVRQAPGQGLEWMGEIYPRSGNTYYNEKFKGRVTMTTDTSTSTAYMELRSLRSDDTAVYYCARSGPITTLVATDYGMDYWGQGTTVTVSS VL: DIVMTQSPDSLAVSLGERATINCRASKSVSTSSYSYMHWYQQKPGQPPKLLIKFASNLESGVPDRFSGSGSGTDFTLTISSLQAEDVAVYYCQHSREFPYTFGGGTKVEIK | 1.98

Let us examine a further case.
Ask: OD450 nm for h97A3C2H4-9 (antibody, V domains shown, Humanized antibody; VH3-7/JH6 CDR-grafted with A93T, G44R; also called humanized BLyS antibody h97A3C2H4 variant 9 (VH.1b / Vk.1d)) VH: EVQLVESGGGLVQPGGSLRLSCAASGFTFSTYTMSWVRQAPGKRLEWVAYISYGGGSTSYPDTVKGRFTISRDNAKNSLYLQMNSLRAEDTAVYYCTRHVTVVENSMDYWGQGTTVTVSS VL: DILLTQSPDFQSVTPKEKVTITCRASQSIGTSIHWYQQKTDQSPKLLIKYVSESFSGTPSRFSGSGSGTDFTLTINSLEAEDAATYYCQQTHSWPWTFGGGTKVEIK ?
Result: 1.96
